Molecular target: T1, Human IL12 (His Tag) (human, UniProt P29459 23-219; P29460 23-328)
T1 construct: Bought His-tagged heterodimer
T1 sequence (looked up) 1: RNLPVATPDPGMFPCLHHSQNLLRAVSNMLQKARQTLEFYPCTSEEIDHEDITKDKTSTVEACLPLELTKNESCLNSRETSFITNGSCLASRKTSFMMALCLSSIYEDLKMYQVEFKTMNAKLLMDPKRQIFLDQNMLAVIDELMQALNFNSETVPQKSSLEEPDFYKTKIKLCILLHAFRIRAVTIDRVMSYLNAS
T1 sequence (looked up) 2: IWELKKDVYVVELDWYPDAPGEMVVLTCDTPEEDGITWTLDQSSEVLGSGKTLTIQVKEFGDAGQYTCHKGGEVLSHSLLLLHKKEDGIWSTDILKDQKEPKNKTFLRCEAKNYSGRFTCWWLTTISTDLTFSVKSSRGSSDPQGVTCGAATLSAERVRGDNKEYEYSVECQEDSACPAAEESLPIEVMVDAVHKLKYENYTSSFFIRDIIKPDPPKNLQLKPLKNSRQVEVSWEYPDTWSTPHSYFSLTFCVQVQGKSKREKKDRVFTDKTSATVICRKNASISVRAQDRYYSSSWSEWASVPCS
Experiment: FACS competition, IL-12-His 20 nM on 293T-IL-12Rβ1&IL-23R cells
measurementType: EC50
Answer with the number, then the unit.

Asked: Determine from records and report EC50 for H5L10 (antibody, human IgG1, kappa, V domains shown, human IgG1 / kappa constant regions; also called humanized antibody H5L10) VH: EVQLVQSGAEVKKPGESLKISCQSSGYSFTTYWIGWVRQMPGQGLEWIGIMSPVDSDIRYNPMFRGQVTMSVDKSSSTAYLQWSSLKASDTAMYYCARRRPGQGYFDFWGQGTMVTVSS VL: EIVLTQSPATLSASPGERATISCRASQSVGSWLAWYQQKPGQAPRSLIYAASNLQSGIPARFSGSGSGTDFTLTISSLEPEDFAVYYCQQYNIYPYTFGQGTRLEIKR
Given back: 0.331 µg/mL
